- ASSAYED TARGET: Solute carrier family 2, facilitated glucose transporter member 1 (Homo sapiens) (UniProt P11166)
- Sequence (P11166 whole entry): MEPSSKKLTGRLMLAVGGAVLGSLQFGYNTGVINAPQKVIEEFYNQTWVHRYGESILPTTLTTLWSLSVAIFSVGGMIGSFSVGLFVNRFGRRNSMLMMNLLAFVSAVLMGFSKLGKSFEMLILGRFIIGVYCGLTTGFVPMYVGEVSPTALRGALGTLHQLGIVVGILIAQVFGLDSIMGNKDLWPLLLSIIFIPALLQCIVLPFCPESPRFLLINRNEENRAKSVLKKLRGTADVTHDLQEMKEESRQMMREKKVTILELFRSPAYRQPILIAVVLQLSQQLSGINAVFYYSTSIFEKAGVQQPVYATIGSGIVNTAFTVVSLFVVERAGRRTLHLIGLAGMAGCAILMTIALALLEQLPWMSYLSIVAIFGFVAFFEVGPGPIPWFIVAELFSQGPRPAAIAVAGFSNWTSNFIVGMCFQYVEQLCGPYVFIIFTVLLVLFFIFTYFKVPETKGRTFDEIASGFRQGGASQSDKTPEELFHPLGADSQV
- TEST: ST_JUDE_LEISH: Cytotoxicity at 2uM final concentration against transgenic Leishmania Mexicana promastigotes LmGLUT1 that are glucose transport deficient and complemented with the human glucose transporter GLUT1. Activity is measured by DNA content using SYBR green in vitro
- Type: functional
The following molecules are shown together with reported inhibition values.
Answer format: numeric, % implied, no suffix.

Sample answers from the record:
CC1CN(CCCn2c3ccccc3c3ccc(C(=O)CCCN(C)C)cc32)CC(C)N1 (stereo unspecified)    1.15
Cn1c(=O)c2cc(C(=O)NCCCN3CCCCCC3)sc2c2ccccc21    2.89
COc1ccc(NC(=O)[C@H](CC(C)C)Nc2cc(C)nc(NCc3ccccc3C)n2)cc1    1.76
O=C(NCCN1CCOCC1)c1ccc(O)c(-c2cccc(C(F)(F)F)c2)c1    0.48
COc1ccc(C(=O)N2CCC3(CC2)C(=O)N(CC(=O)NCC2CCCCC2)CN3c2ccccc2)cc1    3.99

Item COc1cc(Cc2cnc(N)nc2N)ccc1Oc1ccc(N)cc1 has what recorded inhibition?
1.44

Now consider COc1ccccc1C1CN(Cc2coc3ccccc3c2=O)Cc2ccccc2O1 (stereo unspecified) .
0.38

Try this molecule too: O=C(O)c1ccc(NC(=O)C2CC(=O)N(Cc3ccc(Cl)cc3)C(=Nc3ccc(Cl)cc3)S2)cc1 (stereo unspecified)
2.23

Subsequent entry: CCN(CC)c1ccc2nc(N)nc(N)c2c1Cl
5.94

Thanks! And CC(C)c1cccc(C(C)C)c1NC(=O)NNC(=O)c1ccc(CCN2CCC(c3nc(COCC(F)(F)F)c(-c4ccc(F)cc4)o3)CC2)cc1 ?
10.8

Similarly, O=C(c1cncc(-c2ccccc2)c1)N(Cc1cncn1Cc1ccccc1F)CC1CC1 ?
0.88

====

- ASSAYED TARGET: Glucose transporter (Leishmania mexicana)
- TEST: ST_JUDE_LEISH: Cytotoxicity at 2uM final concentration against transgenic Leishmania Mexicana promastigotes LmGT2 that are glucose transport deficient and complemented with the L. Mexicana glucose transporter 2. Activity is measured by DNA content using SYBR green in vitro
- Assay type: functional
Readings of inhibition for the listed molecules
Could you write the number and then its unit?

O=C(c1cc(-c2cccs2)n[nH]1)N1CCN(S(=O)(=O)c2ccc(Cl)s2)CC1    2.9%
COc1cc(C)c(NC(=O)c2cccc3c(=O)c(C)c(-c4ccccc4)oc23)cc1OC    -1.52%
COc1cc(OC)cc(C(=O)Nc2nc(-c3ccccn3)cs2)c1    7.57%
Cc1noc(-c2ccc(NC[C@@H](C)NC[C@H](O)c3cccc(Cl)c3)cc2)n1    4.26%
CS(=O)(=O)NCCCNCc1ccc(-c2cccc(-c3nc4cc(F)ccc4[nH]3)c2)cc1    -0.29%

Please report the recorded inhibition for Cc1cc(O)c(-c2ccc(S(=O)(=O)c3ccc(Cl)cc3)cc2)c(C)n1 .
1.44%

Another molecule to look at: CCOc1cc(C(=O)NCCCN2CCN(c3cccc(Cl)c3)CC2)ccc1-c1nc2cc(Cl)c(F)cc2[nH]1
-0.18%

Same for Cc1cc(NC(=O)c2cccs2)ccc1OC1CCN(Cc2ccc(C#N)cc2)C1 (stereo not given)
3.26%

Also need COc1cccc(CN2CCC(C(=O)Nc3ccc(-c4nc5ccccc5[nH]4)cc3)CC2)c1 , thanks.
20.6%

// same read-out, input: O=S(=O)(NCCN1CCCC1)c1ccc(-c2ccc(CNCc3ccc(F)cc3)cc2)s1
0.98%

And the next one, COc1ccc2ncc(Cl)c(NCC3(O)CCC(NCc4ccc5c(n4)NC(=O)CS5)CC3)c2n1 (stereo not given) ?
1.82%

What would you report for CCCCCCN1CCCN(Cc2ccc(C(=O)Nc3ccc(CCC)cc3)cc2)CC1 ?
7.37%

Entry Cn1cnc(CCNC(=O)c2cccc(-c3csc(-c4nc5ccccc5[nH]4)c3)c2)c1 please
-0.89%

And then CCCNCc1ccc(-c2ccc(CN(Cc3cccs3)C(=O)C3CCN(C)CC3)cc2)nc1 , what is it?
-0.89%

Moving on to CN(C)CCCN(C)c1cccc2c1nc(-c1cccnc1)n2CCNCc1ccccc1
1.45%

For COc1ccc(CNC2CCN(c3ccc(NC(=O)c4cccc(Cl)c4)cc3)CC2)cc1OC then?
0.61%

Also check CC(=O)c1ccc(NC(=O)Nc2ccc(N(C)c3ccnc(NC4CC4)n3)cc2)cc1
0.62%

Consider next the molecule COC(=O)c1c(NC(=O)c2cccc(C(F)(F)F)c2)sc2c1CCN(Cc1ccccc1)C2 in the same way.
-1.31%

Please give the result for O=C(Cc1cccc(Cl)c1)N1CCc2cc3nccc(N4CCN5CCC[C@H]5C4)c3cc21 too.
4.38%

What do we get for O=C(CNc1ccncc1)c1c[nH]c2ccccc12 ?
0.74%

====

- ASSAYED TARGET: Glucose transporter (Leishmania mexicana) (UniProt O61059)
- TEST: ST_JUDE_LEISH: Cytotoxicity at 2uM final concentration against transgenic Leishmania Mexicana promastigotes LmGT2 that are glucose transport deficient and complemented with the L. Mexicana glucose transporter 2. Activity is measured by DNA content using SYBR green in vitro
- Type: functional
The threshold is inclusive: inhibition of exactly 6% counts as label 1; values below receive label 0.

Examples from the recorded data:
O=C(Nc1ccc(Oc2ccccc2)cc1)N[C@@H](Cc1ccc(O)cc1)C(=O)NC1CCN(Cc2ccc(O)c([N+](=O)[O-])c2)C1 (stereo not given in full)    label 0
COc1ccc(OC)c(C=NNc2nc3ccccc3[nH]2)c1    label 0

API: the following record is the query input.
Is inhibition at least 6%? Consider COc1ccc(NC(=O)c2ccc3cc4ccccc4cc3c2)cc1N1CCN(C)CC1
label 0

====

- ASSAYED TARGET: Glucose transporter (Leishmania mexicana)
- TEST: ST_JUDE_LEISH: Cytotoxicity at 2uM final concentration against transgenic Leishmania Mexicana promastigotes LmGT2 that are glucose transport deficient and complemented with the L. Mexicana glucose transporter 2. Activity is measured by DNA content using SYBR green in vitro
- Assay type: functional
MEASURE: inhibition (%)
# value in %; strip the unit string

Worked examples, 6 compounds total:
Cc1[nH]c2ccccc2c1C(=O)C(C)Sc1nnc(-c2ccccc2F)o1 (centres undefined)    3.81
Brc1cc2c(cc1C=NNc1nc(=Nc3ccccc3)[nH]c(=Nc3ccccc3)[nH]1)OCO2    -2.12
c1cc(-c2ccc(CNCCCn3ccnc3)cc2)cc(-c2nc3ccccc3[nH]2)c1    0.93
Cc1cc(C(=O)CN2C(=O)NC3(CCCc4ccccc43)C2=O)c(C)n1Cc1ccco1 (centres undefined)    -1.89
Cc1cccc2nc(-c3ccc(-c4ccc(CN5CCN(CC6CCCN(C)C6)CC5)cc4)cc3)[nH]c12 (centres undefined)    6.25
COc1ccccc1COc1c(C)nc(N)nc1N    -1.06

Can you look up the measured inhibition of Cc1cc(N2CCOCC2)nc(Nc2ccc(NC(=O)Nc3ccc(F)cc3)cc2)n1 for me?
1.66

Same question, CNS(=O)(=O)c1ccc2c(c1)nc(C1CCN(CC3CCC(NC(=O)/C=C/c4ccc(Cl)c(Cl)c4)CC3)CC1)n2C (centres undefined) this time
3.47

Follow-up entry: O=C(COc1ccccc1Cl)N1CCc2cc3nccc(N4CCN5CCC[C@H]5C4)c3cc21
6.01

====

- ASSAYED TARGET: Solute carrier family 2, facilitated glucose transporter member 1 (Homo sapiens) (UniProt P11166)
- TEST: ST_JUDE_LEISH: Cytotoxicity at 2uM final concentration against transgenic Leishmania Mexicana promastigotes LmGLUT1 that are glucose transport deficient and complemented with the human glucose transporter GLUT1. Activity is measured by DNA content using SYBR green in vitro
- Type: functional
Each item that follows carries a reported inhibition.
A number alone suffices; assume %.

OC(c1ccccc1)C1CN(CCC2CC3CCC2C3)CCC1(O)c1ccccc1 (stereo not given)    -0.77

Given the molecule Cc1cccc2nc(-c3cccc(-c4cccc(CN5CCC(CO)CC5)c4)c3)[nH]c12 , what is its reported inhibition?
9.53

Now this one: Cn1ncc2c3c(CCN4CCC(NCc5ccc6c(c5)NC(=O)CO6)CC4)c(Cl)cnc3ccc21
1.41

Another: CN1CCCN(c2ccnc3cc4c(cc23)N(C(=O)c2ccc(Cl)cc2)CC4)CC1
13.4

Let us now turn to Cc1noc(C)c1-c1cccc(CNCc2ccc(-c3cccc(-c4nc5cccc(C)c5[nH]4)c3)cc2)c1
0.9

Please do the same for C[C@@H](Oc1cc(-n2cnc3cc(SCCN4CCN(C)CC4)ccc32)sc1C(N)=O)c1ccccc1Cl as well.
35.4

Try this molecule too: COc1cc(OC)c2c(C)cc(NCCCn3ccnc3)nc2c1
2.59

Lookup COc1ccc(CNc2ccnc(-n3cnc4cc(C)c(C)cc43)n2)cc1Cl
4.37

Please give the result for CCCC(C)NC(=O)/C=C/c1ccccc1-c1cccc(OC)c1 (stereo not given) too.
-0.91
